test: qHTS assay for identifying genotoxic compounds that show differential cytotoxicity against isogenic chicken DT40 cell lines with known DNA damage response pathways - Rev3 mutant cell line (AID 743014); conditions: chicken DT40 Rev3-/- viability, CellTiter-Glo, 40 h; series mostly up to 68.4 µM; note: nearly all actives have a fitted effect of over 55% in size
Records with an inconclusive call do not appear. Active and inactive are the calls of the source. Calls come from the whole dose curve; as a rule, active = well fitted cell-killing curve with a large enough effect in the repeat runs; inconclusive = weak or mixed curves, or effect the other way; inactive = no such curve, though single readings can be large or run the other way.
Could you please pick one outcome from this set? 1 = active, -1 = inactive

Recorded results for 5 compounds are shown here.
- O=c1[nH]c(=O)n([C@H]2C[C@H](O)[C@@H](CO)O2)cc1I: 1
- CCCc1cc(C(N)=S)ccn1: -1
- O=C(O)CCCc1ccccc1: -1
- C[C@](N)(Cc1ccc(O)cc1)C(=O)O: -1
- Cc1cc2c(cc1S(N)(=O)=O)S(=O)(=O)CCC2: -1

Query: Give the logged outcome of this assay for the following compound: CC(C)NCC(O)c1ccc(NS(C)(=O)=O)cc1 (stereo not drawn)
Reply: -1

Query: Per the records of this test, what outcome belongs to C[N+](C)(C)CCCCCC[N+](C)(C)C ?
Reply: -1

Query: Hey, what did the test say about C=C(C)CS(=O)(=O)O ?
Reply: -1

Query: Called result for N[C@@H](C(=O)N[C@@H]1C(=O)N2C(C(=O)O)=C(Cl)CS[C@H]12)c1ccccc1
Reply: -1

Query: What did the test return for COC(C)(C)CCCC(C)CC=O (stereo not drawn) ?
Reply: -1

Query: Could you please tell me the result logged for OCCCC1CCCCC1 in this assay?
Reply: -1

###

biological target: Estrogen receptor beta (Homo sapiens) (UniProt Q92731); experiment: qHTS assay to identify small molecule agonists of the estrogen receptor beta (ER-beta) signaling pathway (AID 1259377); conditions: ER-beta-UAS-bla HEK293T, beta-lactamase FRET ratio, 16 h; series mostly up to 42.5 µM; note: % is set by controls: 0 for no effect and ±100 for the full control effect
Sequence (Q92731 whole entry, looked up): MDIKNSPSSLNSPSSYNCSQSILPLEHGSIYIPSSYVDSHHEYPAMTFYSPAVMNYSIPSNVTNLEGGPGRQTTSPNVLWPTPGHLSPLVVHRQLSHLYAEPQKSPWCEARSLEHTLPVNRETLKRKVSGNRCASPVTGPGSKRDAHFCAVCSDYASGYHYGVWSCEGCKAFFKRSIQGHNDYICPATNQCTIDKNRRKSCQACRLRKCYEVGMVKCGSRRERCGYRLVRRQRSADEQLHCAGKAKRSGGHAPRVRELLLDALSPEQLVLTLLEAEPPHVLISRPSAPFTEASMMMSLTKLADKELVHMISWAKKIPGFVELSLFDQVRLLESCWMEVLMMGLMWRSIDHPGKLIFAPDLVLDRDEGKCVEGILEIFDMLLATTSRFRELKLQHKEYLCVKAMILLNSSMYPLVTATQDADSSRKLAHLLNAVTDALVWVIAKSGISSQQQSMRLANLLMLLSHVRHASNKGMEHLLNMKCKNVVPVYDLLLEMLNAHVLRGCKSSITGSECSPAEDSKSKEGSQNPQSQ
Results filed as inconclusive are left out. Calls of active or inactive are those of the source. Calls follow the shape of the dose curve; as a rule, active = well fitted activation curve with a large enough effect in the signal ratio in the repeat runs (not every such curve was filed as active); inconclusive = weak or mixed curves, or effect the other way; inactive = flat fitted curve, though single readings scatter; the % refers to the signal ratio.
parameter-measured: activation

// solved cases for activation follow
* CC(=O)OCC(=O)[C@@]1(O)CC[C@H]2[C@@H]3CCC4=CC(=O)CC[C@]4(C)[C@H]3C(=O)C[C@@]21C | inactive
* O=C(O)COc1nn(Cc2ccccc2)c2ccccc12 | inactive
* CC(NC(CCc1ccccc1)C(=O)O)C(=O)N1C(=O)N(C)CC1C(=O)O (centres undefined) | inactive
* O=C(O)CN(CCOCCOCCN(CC(=O)O)CC(=O)O)CC(=O)O | -3.04% [at 0.348 µM] (inactive)
* C=C1CC[C@H]2C[C@@H]1C2(C)C | inactive
* Nc1nc2c(ncn2COC(CO)CO)c(=O)[nH]1 | inactive

Query: Check Estrogen receptor beta (Homo sapiens) (UniProt Q92731) data and give activation for O=[N+]([O-])c1ccc(F)cc1F .
Reply: inactive

Query: For Estrogen receptor beta (Homo sapiens) (UniProt Q92731), give activation of the listed compound: CC(C)NCC(O)c1ccc(NS(C)(=O)=O)cc1 (centres undefined)
Reply: inactive

Query: Lab note: Estrogen receptor beta (Homo sapiens) (UniProt Q92731) assay, enter activation for NS(=O)(=O)c1cc2c(cc1Cl)NC(C1CC3C=CC1C3)NS2(=O)=O (centres undefined) here
Reply: inactive

Query: Output reported activation of the compound O=C[C@H](O)[C@@H](O)[C@H](O)[C@H](O)CO on Estrogen receptor beta (Homo sapiens) (UniProt Q92731).
Reply: inactive

Query: Please indicate recorded activation of CCCCC(CC)COC(=O)c1ccccc1O (centres undefined) measured with Estrogen receptor beta (Homo sapiens) (UniProt Q92731).
Reply: inactive

Query: Name the recorded activation of ClC(Cl)(Br)Br , assay system Estrogen receptor beta (Homo sapiens) (UniProt Q92731).
Reply: inactive

Query: Recall the reported activation of Cc1c(NC(C)C)c(=O)n(-c2ccccc2)n1C when tested on Estrogen receptor beta (Homo sapiens) (UniProt Q92731).
Reply: inactive

Query: Give measured activation for CCO[Si](CCC1CCC2OC2C1)(OCC)OCC (centres undefined) (Estrogen receptor beta (Homo sapiens) (UniProt Q92731)).
Reply: inactive

Query: Enter recorded activation with Estrogen receptor beta (Homo sapiens) (UniProt Q92731) for O=C(CCCN1CCN(c2ccccn2)CC1)c1ccc(F)cc1 here.
Reply: inactive

Query: Fill: activation (Estrogen receptor beta (Homo sapiens) (UniProt Q92731)) for this compound CCN(Cc1ccncc1)C(=O)C(CO)c1ccccc1 (centres undefined)
Reply: inactive

Query: Report measured activation on Estrogen receptor beta (Homo sapiens) (UniProt Q92731); entry: COC(=O)CC(C)=O
Reply: inactive

Query: Lab note: record activation of CCOC(=O)c1cccc(N)c1 tested on Estrogen receptor beta (Homo sapiens) (UniProt Q92731).
Reply: inactive

Query: Given NCCc1cnc[nH]1 , report its activation on Estrogen receptor beta (Homo sapiens) (UniProt Q92731).
Reply: inactive

Query: State recorded activation with Estrogen receptor beta (Homo sapiens) (UniProt Q92731), entry CC1(C)CO[C@@H](CC(=O)O)CN1 , no comment.
Reply: inactive

Query: Give the observed activation of Oc1ccc(C2CNCCc3c2cc(O)c(O)c3Cl)cc1 (centres undefined) for Estrogen receptor beta (Homo sapiens) (UniProt Q92731).
Reply: inactive

Query: Send back Estrogen receptor beta (Homo sapiens) (UniProt Q92731) activation of CC(=O)OC/C=C(\C)CC/C=C(\C)CCC=C(C)C only.
Reply: inactive

Query: System Estrogen receptor beta (Homo sapiens) (UniProt Q92731). Read-out activation. Item O=C(O)c1ccccc1OP(=O)(O)O . Report value.
Reply: inactive

Query: For Estrogen receptor beta (Homo sapiens) (UniProt Q92731), give the measured activation of the entry Cc1cnc(NS(=O)(=O)c2ccc(N)cc2)nc1
Reply: inactive

Query: Please indicate recorded activation of CC(C)CNCC(C)C measured with Estrogen receptor beta (Homo sapiens) (UniProt Q92731).
Reply: inactive

Query: // output activation; input CC1=CC(C)C(C=O)CC1 (centres undefined) ; system Estrogen receptor beta (Homo sapiens) (UniProt Q92731)
Reply: inactive

Query: Report activation from Estrogen receptor beta (Homo sapiens) (UniProt Q92731) testing of NC(=O)c1cn(Cc2c(F)cccc2F)nn1
Reply: inactive

Query: For Estrogen receptor beta (Homo sapiens) (UniProt Q92731), give activation of the listed compound: COCCCOCCCOC
Reply: inactive

Query: Please indicate recorded activation of CC(=O)Nc1ccc(S(N)(=O)=O)cc1 measured with Estrogen receptor beta (Homo sapiens) (UniProt Q92731).
Reply: inactive

Taken from PubChem BioAssay (Tox21).
